Molecular target: HLA-A*68:02
Assay: IEDB peptide-MHC binding, purified MHC/competitive/fluorescence; filed as Kd, often an IC50 or EC50 that approximates it; bounds were set here for any values at or beyond the usual limits of such assays
Details: source organism: Escherichia coli B171
pKd: −log10 of the molar value.

residue.string: KAIIDTAQF
pKd: ≤ 4.70

---

Molecular target: HLA-B*15:01
Assay: IEDB peptide-MHC binding, purified MHC/competitive/fluorescence; filed as Kd, often an IC50 or EC50 that approximates it; bounds were set here for any values at or beyond the usual limits of such assays
Details: source organism: Giardia lamblia ATCC 50803
pKd: −log10 of the molar value.
measurement.label: pKd

residue.string: TMNSRYYLV
measured: ≤ 4.70

---

Biological target: HLA-A*30:01
Assay: IEDB peptide-MHC binding, purified MHC/competitive/radioactivity; filed as Kd, often an IC50 or EC50 that approximates it; bounds were set here for any values at or beyond the usual limits of such assays
Conditions: source organism: Mammarenavirus brazilense
pKd: −log10 of the molar value.

residue.string: EMFKTKGRY
pKd: 5.05

---

Molecular target: HLA-A*31:01
Assay: IEDB peptide-MHC binding, purified MHC/direct/fluorescence; filed as Kd, often an IC50 or EC50 that approximates it; bounds were set here for any values at or beyond the usual limits of such assays
Settings: source organism: Yersinia pestis
pKd: −log10 of the molar value.
measurement.label: pKd

residue.string: LLIDDSFSS
assayed.target: HLA-A*31:01
measured: ≤ 4.70

---

Molecular target: HLA-B*18:01
Experiment: IEDB peptide-MHC binding, purified MHC/competitive/fluorescence; filed as Kd, often an IC50 or EC50 that approximates it; bounds were set here for any values at or beyond the usual limits of such assays
Conditions: source organism: Entamoeba histolytica HM-1:IMSS
pKd: −log10 of the molar value.

residue.string: KVSVGSYFC
pKd: ≤ 4.70

---

In this section, each of the sequences is paired with its reported Kd.
Target: HLA-A*30:01
Experiment: IEDB peptide-MHC binding, purified MHC/competitive/radioactivity; filed as Kd, often an IC50 or EC50 that approximates it; bounds were set here for any values at or beyond the usual limits of such assays
Conditions: source organism: Dengue virus 4 Philippines/H241/1956

residue.string: STRDGEPLM
unit.text: nM
Kd: 71.6
//
residue.string: STRVPNYNL
unit.text: nM
Kd: 6.26
//
residue.string: RHRKPTYEK
unit.text: nM
Kd: 24.5

---

Molecular target: HLA-A*03:01
Test: IEDB peptide-MHC binding, purified MHC/competitive/radioactivity; filed as Kd, often an IC50 or EC50 that approximates it; bounds were set here for any values at or beyond the usual limits of such assays
Conditions: source organism: Vaccinia virus WR

residue.string: AVRYYDGNIY
Kd: 2.5 µM

residue.string: ILTYNKTSK
Kd: 0.0458 µM

residue.string: YLTMKAIEK
Kd: 0.384 µM

residue.string: VIEDITFLR
Kd: 1.56 µM

residue.string: TAVCMKCFK
Kd: 0.211 µM

residue.string: LLIWAYLSK
Kd: 0.0907 µM

residue.string: ILHAYCGIK
Kd: 0.0328 µM

residue.string: EILKINSVK
Kd: 0.713 µM

residue.string: TVLGLGLSLK
Kd: 0.0193 µM

residue.string: LFKRERDAIK
Kd: ≥ 30 µM

residue.string: FINFFNLLAK
Kd: 0.00896 µM

---

Target: HLA-A*03:01
Test: IEDB peptide-MHC binding, purified MHC/competitive/fluorescence; filed as Kd, often an IC50 or EC50 that approximates it; bounds were set here for any values at or beyond the usual limits of such assays
Settings: source organism: Influenza A virus (A/nt/60/1968(H3N2))
pKd: −log10 of the molar value.

residue.string: TIHDRIPHR
assayed.target: HLA-A*03:01
pKd: 7.21

---

Target: HLA-B*51:01
Assay: IEDB peptide-MHC binding, purified MHC/competitive/radioactivity; filed as Kd, often an IC50 or EC50 that approximates it; bounds were set here for any values at or beyond the usual limits of such assays
Conditions: source organism: SARS coronavirus Tor2
Below, each entry is listed alongside its reported log10 Kd.
measurement.label: log10 Kd (log10 of the value in nM)

residue.string: FPLKLRGTAV
assayed.target: HLA-B*51:01
log10 Kd: 2.82
--
residue.string: KPTESACSSL
assayed.target: HLA-B*51:01
log10 Kd: 3.63
--
residue.string: LPYPDPSRIL
assayed.target: HLA-B*51:01
log10 Kd: 3.00
--
residue.string: IPKGIMMNV
assayed.target: HLA-B*51:01
log10 Kd: 3.92
--
residue.string: APVSAMVRM
assayed.target: HLA-B*51:01
log10 Kd: 3.25

---

Biological target: HLA-B*15:42
Assay: IEDB peptide-MHC binding, purified MHC/competitive/fluorescence; filed as Kd, often an IC50 or EC50 that approximates it; bounds were set here for any values at or beyond the usual limits of such assays
Details: source organism: Staphylococcus aureus subsp. aureus N315

residue.string: MVIKWIHER
Kd: ≥ 5 µM

---

Molecular target: HLA-A*24:03
Assay: IEDB peptide-MHC binding, purified MHC/direct/fluorescence; filed as Kd, often an IC50 or EC50 that approximates it; bounds were set here for any values at or beyond the usual limits of such assays
Details: source organism: Entamoeba histolytica

residue.string: KHIKPIVEF
unit.text: µM
Kd: 0.0705

---

Target: HLA-B*15:17
Assay: IEDB peptide-MHC binding, purified MHC/competitive/fluorescence; filed as Kd, often an IC50 or EC50 that approximates it; bounds were set here for any values at or beyond the usual limits of such assays
Conditions: source organism: Homo sapiens

residue.string: LLAMTFWPA
Kd: ≥ 20 µM

residue.string: LMQCWQLLA
Kd: ≥ 20 µM

---

Target: HLA-A*02:06
Assay: IEDB peptide-MHC binding, purified MHC/competitive/radioactivity; filed as Kd, often an IC50 or EC50 that approximates it; bounds were set here for any values at or beyond the usual limits of such assays
Settings: source organism: Dengue virus 3 Martinique/1243/1999
pKd: −log10 of the molar value.

residue.string: LQWIASAIV
pKd: 8.43
--
residue.string: YVVIGILTLA
pKd: 7.32
--
residue.string: KQIANELNYI
pKd: 7.49

---

Biological target: HLA-B*51:01
Assay: IEDB peptide-MHC binding, purified MHC/direct/fluorescence; filed as Kd, often an IC50 or EC50 that approximates it; bounds were set here for any values at or beyond the usual limits of such assays
Conditions: source organism: Entamoeba histolytica HM-1:IMSS
pKd: −log10 of the molar value.
measurement.label: pKd

residue.string: VKINIFPLY
assayed.target: HLA-B*51:01
measured: ≤ 4.70

---

Biological target: HLA-C*05:01
Assay: IEDB peptide-MHC binding, purified MHC/direct/fluorescence; filed as Kd, often an IC50 or EC50 that approximates it; bounds were set here for any values at or beyond the usual limits of such assays
Settings: source organism: Yersinia pestis Nepal516
pKd: −log10 of the molar value.
measurement.label: pKd

residue.string: FPIKRISAV
assayed.target: HLA-C*05:01
measurement.label: pKd
measured: ≤ 4.70

---

Target: HLA-A*02:01
Test: IEDB peptide-MHC binding, purified MHC/competitive/radioactivity; bounds were set here for any values at or beyond the usual limits of such assays
Conditions: source organism: Rhinovirus A
pIC50: −log10 of the molar value.
measurement.label: pIC50

residue.string: QMVSSVTFI
measurement.label: pIC50
measured: 6.70

---

Target: HLA-A*26:01
Experiment: IEDB peptide-MHC binding, purified MHC/direct/fluorescence; filed as Kd, often an IC50 or EC50 that approximates it; bounds were set here for any values at or beyond the usual limits of such assays
Conditions: source organism: Yersinia pestis
pKd: −log10 of the molar value.
measurement.label: pKd

residue.string: LLIDDSFSS
assayed.target: HLA-A*26:01
measurement.label: pKd
measured: ≤ 4.70

---

Target: HLA-A*02:19
Experiment: IEDB peptide-MHC binding, purified MHC/direct/fluorescence; filed as Kd, often an IC50 or EC50 that approximates it; bounds were set here for any values at or beyond the usual limits of such assays
Settings: source organism: Orthohantavirus andesense

residue.string: YLIPSVTSL
assayed.target: HLA-A*02:19
Kd: ≥ 20 µM

---

Molecular target: HLA-C*03:03
Experiment: IEDB peptide-MHC binding, purified MHC/direct/fluorescence; filed as Kd, often an IC50 or EC50 that approximates it; bounds were set here for any values at or beyond the usual limits of such assays
Settings: source organism: Mycobacterium tuberculosis str. Haarlem
pKd: −log10 of the molar value.

residue.string: YAREAGIAM
pKd: ≤ 4.70

---

Target: HLA-A*02:50
Assay: IEDB peptide-MHC binding, purified MHC/competitive/fluorescence; filed as Kd, often an IC50 or EC50 that approximates it; bounds were set here for any values at or beyond the usual limits of such assays
Settings: source organism: Yersinia pestis Nepal516
pKd: −log10 of the molar value.
measurement.label: pKd

residue.string: LLIDDSFSS
measured: 8.60
